test: Dansyl polymyxin B (DPX) displacement assay; format: binding, P. aeruginosa; conditions: concentration at which 50% of the maximal DPX was displaced from the LPS; read-out: I50 of DPX displacement
pIC50: −log10 of the molar value.
measured property: pIC50

# compound, test value
data = [
    ("[Mg+2] [Mg^2+ ions, Mg^2+]", "~3.21"),
]

---

test system: Staphylococcus aureus RN4220; type: cell-based; settings: RN4220, 24 h

# compound, MIC S. aureus
records = [
    ("CC[C@H](C)[C@H](N)C(=O)N[C@@H](CC(C)C)C(=O)N1CCC[C@H]1C(=O)N[C@@H](Cc1c[nH]c2ccccc12)C(=O)N[C@@H](CCCCN)C(=O)N[C@@H](Cc1c[nH]c2ccccc12)C(=O)N1CCC[C@H]1C(=O)N[C@@H](Cc1c[nH]c2ccccc12)C(=O)N[C@@H](Cc1c[nH]c2ccccc12)C(=O)N1CCC[C@H]1C(=O)N[C@@H](Cc1c[nH]c2ccccc12)C(=O)N[C@@H](CCCNC(=N)N)C(=O)N[C@@H](CCCNC(=N)N)C(=O)OC [Indolicidin-C]", "4 µg/mL"),
]
